# test-protocol: Pharmacokinetic assay in Balb/c mice (plasma and brain tissue)
# Type: in vivo
# condition-info: male, Balb/c, mouse, in vivo, po, 5 mg/kg, Peak time tmax
measured-attribute: Tmax (h)
State the answer as a number, implicitly in h.

{"smiles": "C[C@@]1(O)CC[C@@]2(F)[C@H](CC[C@H]3[C@@H]4CC[C@H](C(=O)COc5cnc(C(F)(F)F)nc5)[C@@]4(C)CC[C@@H]32)C1", "unit-descriptor": "h", "Tmax": 0.5}
{"smiles": "C[C@@]1(O)CC[C@@]2(F)[C@H](CC[C@H]3[C@@H]4CC[C@H](C(=O)Cn5nc6ccc(F)cc6n5)[C@@]4(C)CC[C@@H]32)C1", "unit-descriptor": "h", "Tmax": 1}
{"smiles": "C[C@@]1(O)CC[C@@]2(F)[C@H](CC[C@H]3[C@@H]4CC[C@H](C(=O)Cn5cc(C(F)(F)F)cn5)[C@@]4(C)CC[C@@H]32)C1", "unit-descriptor": "h", "Tmax": 1}

Measured Tmax of C[C@@]1(O)CC[C@@]2(F)[C@H](CC[C@H]3[C@@H]4CC[C@H](C(=O)Cn5ccc(C(F)(F)F)n5)[C@@]4(C)CC[C@@H]32)C1 : 0.5

Memo: C[C@@]1(O)CC[C@@]2(F)[C@H](CC[C@H]3[C@@H]4CC[C@H](C(=O)Cn5nc(C#N)cc5C#N)[C@@]4(C)CC[C@@H]32)C1 , reported Tmax: 1
